system: phenylquinone-induced writhing reaction; assay: Phenylquinone-induced writhing test on mice; assay type: in vivo; details: Mus musculus, male NMRI mice; 25 mg/kg per os, 30 min before phenylquinone i.p.
Structures can show the parent of a compound that is named as a salt.
Measured Property: inhibition at 25 mg/kg (%)
Number in %, nothing else.

Reported inhibition at 25 mg/kg for COc1cccc([C@](C)(O)[C@H](C)CN(C)C)c1 [(+15), Hydrochloride] was 95.2

Quick note, inhibition at 25 mg/kg for CC[C@](O)(c1cccc(OC(C)C)c1)[C@H](C)CN(C)C (racemic) [(3), Hydrochloride] landed at 81.3

inhibition at 25 mg/kg reported for this molecule CC[C@](O)(c1cccc(O)c1)[C@H](C)CN(C)C (racemic) [(16), Hydrochloride] : 100

What the record says about C[C@@H](CN(C)C)[C@](C)(O)c1cccc(O)c1 [(−17), Hydrochloride] : inhibition at 25 mg/kg is 58.3

For reference, reported inhibition at 25 mg/kg for C[C@H](CN(C)C)[C@@](C)(O)c1cccc(O)c1 [(+17)] stands at 97.2
